growth inhibition for assorted compounds
# TEST PROTOCOL: NCI Yeast Anticancer Drug Screen. Data for the cln2 rad14 strain (AID 165);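 further: 0% = growth equal to vehicle treated cultures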
# EXPERIMENTAL SETUP: S. cerevisiae cln2 rad14 strain, at 50.0 µM, hits give high values
The panel holds about 79,000 compounds, 15% with a hit somewhere; the sample as a whole holds those more often.
Your answer should be a plain number; it is taken to be in %.

Here's what some known entries look like.
| COMPOUND | ASSAY VALUE |
| --- | --- |
| O=C(O)c1ccc(/C=N/NC(=S)Nc2cccc3cccnc23)cc1 | 16.4 |
| CCOP(=O)(OCC)C1(O)CC(n2cc(C)c(=O)[nH]c2=O)OC1CO (configuration not stated) | 27.1 |
| CC1(C)CC(O)(Cc2ccccc2)C(O)c2ccccc21 (configuration not stated) | 54.5 |

Report growth inhibition for O=C1NC(=O)C(c2ccco2)N1 (configuration not stated) 4.8

Report growth inhibition for O=C1C/C(=C\c2cccc([N+](=O)[O-])c2)C(=O)N1 -11.3

Report growth inhibition for O=C1C(=O)c2ccc3c(c2-c2cc4c(cc21)OCO4)OCO3 -5.55

Report growth inhibition for CC(=O)N1C(Nc2ccccc2)CCN1c1ccccc1 (configuration not stated) 10.9

Report growth inhibition for CC(=O)Oc1cc(O)oc(=O)c1 19.3

Report growth inhibition for O=C(OC1CCCC1)c1ccccc1 -29.1

Report growth inhibition for CC1([N+](=O)[O-])C(=O)C2(N3CCCC3)CCCC2C1c1ccccc1 (configuration not stated) -2.25

Report growth inhibition for Cc1cn(C2OC(CO)C(O)C(O)C2O)c(=O)[nH]c1=O (configuration not stated) -3.2

Report growth inhibition for CN(C)c1nc(=Nc2ccc3c(c2)OCO3)ss1 34.1

###

growth inhibition for assorted molecules
# TEST PROTOCOL: NCI Yeast Anticancer Drug Screen. Data for the mec2-1 strain (AID 157)
# EXPERIMENTAL SETUP: S. cerevisiae mec2-1 strain, at 50.0 µM, hits give high values
Compounds without any hit were thinned out: in the full panel of roughly 79,000, 15% have a hit.
Your answer should be a plain number; it is taken to be in %.

| MOLECULE | OBSERVED PROPERTY | ASSAY VALUE |
| --- | --- | --- |
| O=C1C=C(Sc2ccccc2)c2nccc3c2c1nc1ccccc13 | growth inhibition | 7.6 |
| CC(=O)OC(C)c1cc2c(s1)C(=O)c1sccc1C2=O (stereo not drawn) | growth inhibition | 91 |
| CN1C(=O)C(=O)N2c3ccc(Cl)cc3C3(c4ccccc4)N=CC12O3 (stereo not drawn) | growth inhibition | 3.05 |
| CCCC(=O)N[C@H]1C2C3CC4C5CC(C42)C1(C)C53 (stereo partly drawn) | growth inhibition | -17.4 |

Report growth inhibition for CCOC(=O)c1ccc(N=C2C(=S)N(c3ccc(C(=O)OCC)cc3)C(=N)N2/N=C/c2ccccc2)cc1 13.4

Report growth inhibition for O=C(CNC(=O)C(CSC(c1ccccc1)(c1ccccc1)c1ccccc1)NC(=O)OCc1ccccc1)OCc1ccccc1[N+](=O)[O-] (stereo not drawn) 8.85

Report growth inhibition for C[C@H](CCc1nc(C#N)c(N)o1)[C@H]1CC[C@H]2[C@@H]3[C@@H](O)CC4C[C@@H](O)CC[C@]4(C)[C@H]3C[C@@H](O)[C@]12C (stereo partly drawn) 9.8

Report growth inhibition for CCCCC(SC(CC)(CC)C(N)=O)C(N)=O (stereo not drawn) -6.5

Report growth inhibition for O=C1Cc2nc3ccccc3nc2CC(=O)c2ccccc21 10.9

Report growth inhibition for [N-]=[N+]=NC1(Cc2ccccc2)C(=O)c2cccc3c2N(CCC3)C1=O (stereo not drawn) 8.55

Report growth inhibition for CC1=NN(C(=O)c2cccnc2)C(=O)C1N=Nc1ccc(S(=O)(=O)Nc2ccccn2)cc1 (stereo not drawn) -8.75

Report growth inhibition for CN(C)CCC(CCN(C)C)=NOC(=O)c1ccccc1 -20.2

Report growth inhibition for CCOC(=O)/C(O)=C/c1cc(=O)n(C)c2ccccc12 10.7

Report growth inhibition for CC(N)/C(N)=N/O (stereo not drawn) 4.9

Report growth inhibition for COC(=O)C1(CC(=O)c2ccc(Cl)cc2)NC(=S)NC(=O)C1C#N (stereo not drawn) 12.6

Report growth inhibition for CC(=O)Oc1ccc(C2OC(=O)c3ccccc3N2C(C)=O)cc1 (stereo not drawn) 27.6

Report growth inhibition for N[C@H](C(=O)O)[C@H]1ON=C(Cl)[C@@H]1O 4.55

Report growth inhibition for COc1ccccc1NC(C)=O 5.8

Report growth inhibition for COc1ccc2oc(=O)c(CC=C(C)C)c(O)c2c1C 13.9

Report growth inhibition for CC(C)(C)CC(C(=O)O)[Si](C)(C)C (stereo not drawn) 7.1
